ASSAY_NOTES: AMES test (reverse mutagenicity test), strain TA98, with and without S-9
Format: cell-based
CONDITIONS: s9, TA98, without S9, 78 μg/plate; read-out: magnification of the total number of the mutant colony to the control
Please assign FALSE whenever fold induction is at or above 0.8, and TRUE whenever it is below.

Example entries begin here.
{"COMPOUND": "Nc1ccc(N=Nc2ccc(C3(c4ccc(N=Nc5c(S(=O)(=O)O)cc6cc(S(=O)(=O)O)c(N=Nc7ccccc7)c(O)c6c5N)cc4)CCCCC3)cc2)c(O)c1", "CATEGORY_LABEL": "FALSE"}
{"COMPOUND": "CCCCc1ccc(N=Nc2c(S(=O)(=O)O)cc3cc(S(=O)(=O)O)c(N=Nc4ccc(C5(c6ccc(N=Nc7ccc(N(CC)CC)cc7C)cc6)CCCCC5)cc4)c(N)c3c2O)cc1", "CATEGORY_LABEL": "FALSE"}
{"COMPOUND": "CCCCc1ccc(N=Nc2c(S(=O)(=O)O)cc3cc(S(=O)(=O)O)c(N=Nc4ccc(C5(c6ccc(N=Nc7ccc(N(C)C)cc7C(=O)O)cc6)CCCCC5)cc4)c(N)c3c2O)cc1", "CATEGORY_LABEL": "FALSE"}
{"COMPOUND": "CCCCc1ccc(N=Nc2c(S(=O)(=O)O)cc3cc(S(=O)(=O)O)c(N=Nc4ccc(C5(c6ccc(N=Nc7ccc(O)cc7O)cc6)CCCCC5)cc4)c(N)c3c2O)cc1", "CATEGORY_LABEL": "TRUE"}
{"COMPOUND": "Cc1ccc(N=Nc2c(S(=O)(=O)O)cc3cc(S(=O)(=O)O)c(N=Nc4ccc(C5(c6ccc(N=Nc7ccc(N)cc7O)cc6)CCCCC5)cc4)c(N)c3c2O)cc1", "CATEGORY_LABEL": "FALSE"}

Task item: Strictly below 0.8 in fold induction? CCCCc1ccc(N=Nc2c(S(=O)(=O)O)cc3cc(S(=O)(=O)O)c(N=Nc4ccc(C5(c6ccc(N=Nc7ccc(N(C)C)cc7O)cc6)CCCCC5)cc4)c(N)c3c2O)cc1
Reply: TRUE

Task item: Bench note: check whether CCC(C)c1ccc(N=Nc2c(S(=O)(=O)O)cc3cc(S(=O)(=O)O)c(N=Nc4ccc(C5(c6ccc(N=Nc7ccc(N)cc7O)cc6)CCCCC5)cc4)c(N)c3c2O)cc1 (stereo not drawn) shows fold induction below 0.8
Reply: TRUE

Task item: Find out if reported fold induction for CCCCc1ccc(N=Nc2c(S(=O)(=O)O)cc3cc(S(=O)(=O)O)c(N=Nc4ccc(C5(c6ccc(N=Nc7ccc(N)cc7O)cc6)CCCCC5)cc4)c(N)c3c2O)cc1 is less than 0.8
Reply: FALSE

Task item: Does the reported fold induction of CC(C)c1ccc(N=Nc2c(S(=O)(=O)O)cc3cc(S(=O)(=O)O)c(N=Nc4ccc(C5(c6ccc(N=Nc7ccc(N)cc7O)cc6)CCCCC5)cc4)c(N)c3c2O)cc1 stay below 0.8?
Reply: TRUE

* * *

ASSAY_NOTES: AMES test (reverse mutagenicity test), strain TA98, with and without S-9
Assay type: cell-based
CONDITIONS: s9, TA98, with S9, 1250 μg/plate; read-out: magnification of the total number of the mutant colony to the control
Recorded fold induction, one value per entry.
The reply should be a number, written without any unit.

{"MOLECULE": "CCCCc1ccc(N=Nc2c(S(=O)(=O)O)cc3cc(S(=O)(=O)O)c(N=Nc4ccc(C5(c6ccc(N=Nc7ccc(O)cc7O)cc6)CCCCC5)cc4)c(N)c3c2O)cc1", "fold induction": 0.55}

Task item: Entry under review: CC(C)c1ccc(N=Nc2c(S(=O)(=O)O)cc3cc(S(=O)(=O)O)c(N=Nc4ccc(C5(c6ccc(N=Nc7ccc(N)cc7O)cc6)CCCCC5)cc4)c(N)c3c2O)cc1 . Reported fold induction?
Reply: 1.45

Task item: # fold induction lookup, item CCC(C)c1ccc(N=Nc2c(S(=O)(=O)O)cc3cc(S(=O)(=O)O)c(N=Nc4ccc(C5(c6ccc(N=Nc7ccc(N)cc7O)cc6)CCCCC5)cc4)c(N)c3c2O)cc1 (stereo not drawn)
Reply: 0.56

Task item: Tell me the measured fold induction of CCCCc1ccc(N=Nc2c(S(=O)(=O)O)cc3cc(S(=O)(=O)O)c(N=Nc4ccc(C5(c6ccc(N=Nc7ccc(N(CC)CC)cc7C)cc6)CCCCC5)cc4)c(N)c3c2O)cc1 , please.
Reply: 1.08

* * *

Catalogue of fold induction readings, one per entry.
ASSAY_NOTES: AMES test (reverse mutagenicity test), strain TA98, with and without S-9
Type: cell-based
CONDITIONS: s9, TA98, with S9, 5000 μg/plate; read-out: magnification of the total number of the mutant colony to the control
Answer as a number with no unit attached.

Example results:
{"MOLECULE": "CCC(C)c1ccc(N=Nc2c(S(=O)(=O)O)cc3cc(S(=O)(=O)O)c(N=Nc4ccc(C5(c6ccc(N=Nc7ccc(N)cc7O)cc6)CCCCC5)cc4)c(N)c3c2O)cc1 (stereo not drawn)", "fold induction": 0.69}
{"MOLECULE": "CCCCc1ccc(N=Nc2c(S(=O)(=O)O)cc3cc(S(=O)(=O)O)c(N=Nc4ccc(C5(c6ccc(N=Nc7ccc(O)cc7O)cc6)CCCCC5)cc4)c(N)c3c2O)cc1", "fold induction": 0.42}

Task item: So what's the measured fold induction for this one? Cc1ccc(N=Nc2c(S(=O)(=O)O)cc3cc(S(=O)(=O)O)c(N=Nc4ccc(C5(c6ccc(N=Nc7ccc(N)cc7O)cc6)CCCCC5)cc4)c(N)c3c2O)cc1
Reply: 0.65

Task item: Suppose we examine the molecule Nc1ccc(N=Nc2ccc(C3(c4ccc(N=Nc5c(S(=O)(=O)O)cc6cc(S(=O)(=O)O)c(N=Nc7ccccc7)c(O)c6c5N)cc4)CCCCC3)cc2)c(O)c1 ; what fold induction value has been reported?
Reply: 0.96

Task item: GET /values?readout=fold induction&item= CCCCc1ccc(N=Nc2c(S(=O)(=O)O)cc3cc(S(=O)(=O)O)c(N=Nc4ccc(C5(c6ccc(N=Nc7ccc(N)cc7O)cc6)CCCCC5)cc4)c(N)c3c2O)cc1
Reply: 0.69

Task item: What does the data say about its fold induction? Entry: CCCCc1ccc(N=Nc2c(S(=O)(=O)O)cc3cc(S(=O)(=O)O)c(N=Nc4ccc(C5(c6ccc(N=Nc7ccc(N(CC)CC)cc7C)cc6)CCCCC5)cc4)c(N)c3c2O)cc1
Reply: 1.03

Task item: Entry CCCCc1ccc(N=Nc2c(S(=O)(=O)O)cc3cc(S(=O)(=O)O)c(N=Nc4ccc(C5(c6ccc(N=Nc7ccc(N(C)C)cc7O)cc6)CCCCC5)cc4)c(N)c3c2O)cc1 : reported fold induction = ?
Reply: 0.59

Task item: Which fold induction is listed for CCCCc1ccc(N=Nc2c(S(=O)(=O)O)cc3cc(S(=O)(=O)O)c(N=Nc4ccc(C5(c6ccc(N=Nc7ccc(N(C)C)cc7C(=O)O)cc6)CCCCC5)cc4)c(N)c3c2O)cc1 ?
Reply: 0.59

Task item: Fill in the blank: the reported fold induction of CC(C)c1ccc(N=Nc2c(S(=O)(=O)O)cc3cc(S(=O)(=O)O)c(N=Nc4ccc(C5(c6ccc(N=Nc7ccc(N)cc7O)cc6)CCCCC5)cc4)c(N)c3c2O)cc1 is ____.
Reply: 1.05

* * *

ASSAY_NOTES: Solubility of dye (Na salt) in water
Type: physicochemical
METRIC: Solubility Dye(g)/water (100 g)

Task item: Which value of Solubility Dye(g)/water (100 g) has been reported for CCCCc1ccc(N=Nc2c(S(=O)(=O)O)cc3cc(S(=O)(=O)O)c(N=Nc4ccc(C5(c6ccc(N=Nc7ccc(N(C)C)cc7O)cc6)CCCCC5)cc4)c(N)c3c2O)cc1 [Example 9] in the records?
Reply: 12 g of dye/100 g of water

Task item: Give the measured Solubility Dye(g)/water (100 g) of CCCCc1ccc(N=Nc2c(S(=O)(=O)O)cc3cc(S(=O)(=O)O)c(N=Nc4ccc(C5(c6ccc(N=Nc7ccc(N(CC)CC)cc7C)cc6)CCCCC5)cc4)c(N)c3c2O)cc1 [Example 7] .
Reply: 12 g of dye/100 g of water

Task item: Tell me the measured Solubility Dye(g)/water (100 g) of Nc1ccc(N=Nc2ccc(N=Nc3c(S(=O)(=O)[O-])cc4cc(S(=O)(=O)[O-])c(N=Nc5ccc(N=Nc6ccc(N)cc6N)cc5)c(O)c4c3N)cc2)c(N)c1.[Na+].[Na+] [Comparative Example 1, C.I. Direct Black 19, reference compound] , please.
Reply: 20 g of dye/100 g of water

* * *

Reported fold induction by item:
ASSAY_NOTES: AMES test (reverse mutagenicity test), strain TA98, with and without S-9
Format: cell-based
CONDITIONS: s9, TA98, with S9, 20 μg/plate; read-out: magnification of the total number of the mutant colony to the control

{"MOLECULE": "CC(C)c1ccc(N=Nc2c(S(=O)(=O)O)cc3cc(S(=O)(=O)O)c(N=Nc4ccc(C5(c6ccc(N=Nc7ccc(N)cc7O)cc6)CCCCC5)cc4)c(N)c3c2O)cc1", "METRIC": "fold induction", "OBSERVED_VALUE": 1.77}
{"MOLECULE": "CCCCc1ccc(N=Nc2c(S(=O)(=O)O)cc3cc(S(=O)(=O)O)c(N=Nc4ccc(C5(c6ccc(N=Nc7ccc(N(C)C)cc7C(=O)O)cc6)CCCCC5)cc4)c(N)c3c2O)cc1", "METRIC": "fold induction", "OBSERVED_VALUE": 1.13}
{"MOLECULE": "CCCCc1ccc(N=Nc2c(S(=O)(=O)O)cc3cc(S(=O)(=O)O)c(N=Nc4ccc(C5(c6ccc(N=Nc7ccc(N(C)C)cc7O)cc6)CCCCC5)cc4)c(N)c3c2O)cc1", "METRIC": "fold induction", "OBSERVED_VALUE": 1.15}
{"MOLECULE": "Cc1ccc(N=Nc2c(S(=O)(=O)O)cc3cc(S(=O)(=O)O)c(N=Nc4ccc(C5(c6ccc(N=Nc7ccc(N)cc7O)cc6)CCCCC5)cc4)c(N)c3c2O)cc1", "METRIC": "fold induction", "OBSERVED_VALUE": 1.38}
{"MOLECULE": "CCCCc1ccc(N=Nc2c(S(=O)(=O)O)cc3cc(S(=O)(=O)O)c(N=Nc4ccc(C5(c6ccc(N=Nc7ccc(O)cc7O)cc6)CCCCC5)cc4)c(N)c3c2O)cc1", "METRIC": "fold induction", "OBSERVED_VALUE": 1.09}
{"MOLECULE": "CCCCc1ccc(N=Nc2c(S(=O)(=O)O)cc3cc(S(=O)(=O)O)c(N=Nc4ccc(C5(c6ccc(N=Nc7ccc(N(CC)CC)cc7C)cc6)CCCCC5)cc4)c(N)c3c2O)cc1", "METRIC": "fold induction", "OBSERVED_VALUE": 1.03}
{"MOLECULE": "Nc1ccc(N=Nc2ccc(C3(c4ccc(N=Nc5c(S(=O)(=O)O)cc6cc(S(=O)(=O)O)c(N=Nc7ccccc7)c(O)c6c5N)cc4)CCCCC3)cc2)c(O)c1", "METRIC": "fold induction", "OBSERVED_VALUE": 1.44}
{"MOLECULE": "CCC(C)c1ccc(N=Nc2c(S(=O)(=O)O)cc3cc(S(=O)(=O)O)c(N=Nc4ccc(C5(c6ccc(N=Nc7ccc(N)cc7O)cc6)CCCCC5)cc4)c(N)c3c2O)cc1 (stereo not drawn)", "METRIC": "fold induction", "OBSERVED_VALUE": 0.81}

Now turn to the next molecule.
Task item: Find the recorded fold induction belonging to CCCCc1ccc(N=Nc2c(S(=O)(=O)O)cc3cc(S(=O)(=O)O)c(N=Nc4ccc(C5(c6ccc(N=Nc7ccc(N)cc7O)cc6)CCCCC5)cc4)c(N)c3c2O)cc1 and report it.
Reply: 1.21
